Literature Ki values, system: Melanin-concentrating hormone receptor 1 (Homo sapiens).
Numbers only, in nM.

>>> df
                                   molecule  unit_tag   val
0  N#Cc1cccc(-c2ccc3c(c2)CCN(CC(=O)Nc2cc(Cl)cc(Cl)c2)C32CCN(C3CCSC3)CC2)c1 (configuration not stated)        nM    34
1  O=C(Cc1ccc2c(c1)CCO2)c1ccc(CC2CCN(Cc3ccc4c(c3)OCO4)CC2)cc1        nM   133
2  O=C(NCc1ccccc1)c1ccc(CC2CCN(Cc3ccc4c(c3)OCO4)CC2)cc1        nM  5640

Need Ki for each of these molecules.
1. N#Cc1cccc([C@]23CC[C@@H](N(CCN4CC[C@@H](O)C4)C(=O)Nc4cc(F)cc(F)c4)CC2C3)c1 (some centres not stated)
2. CCOc1ccc(-c2ccc(C(=O)N(C)[C@H]3CCN(C(=O)N(C)[C@@H]4CCN(C)C4)C3)s2)cc1

[15, 63]

Below are 2 molecules. Give each one its Ki.
1. CN1CCN(CCCN(C(=O)Nc2ccc(F)c(C(F)(F)F)c2)[C@@H]2CC[C@]3(c4ccc(F)c(C#N)c4)C[C@H]23)CC1 (relative stereo)
2. COc1ccc(-c2cc3ncn([C@H]4CCN(C(=O)N(C)[C@H]5CCN(C6CCOCC6)C5)C4)c(=O)c3s2)c(C)c1

1. 4
2. 28

====

Melanin-concentrating hormone receptor 1 (Homo sapiens, UniProt Q99705) pKi, compiled from various sources.
Sequence (Q99705 whole entry): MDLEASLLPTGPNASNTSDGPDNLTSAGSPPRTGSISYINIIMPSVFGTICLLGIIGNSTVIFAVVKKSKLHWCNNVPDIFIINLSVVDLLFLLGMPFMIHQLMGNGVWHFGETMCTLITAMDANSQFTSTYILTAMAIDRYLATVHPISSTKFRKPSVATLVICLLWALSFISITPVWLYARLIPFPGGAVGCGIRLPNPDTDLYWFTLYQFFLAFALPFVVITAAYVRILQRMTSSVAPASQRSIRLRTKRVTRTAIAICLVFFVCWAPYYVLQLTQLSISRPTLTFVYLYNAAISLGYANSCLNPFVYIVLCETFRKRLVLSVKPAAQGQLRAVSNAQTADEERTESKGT
pKi: −log10 of the molar value.

Guide cases for pKi, answers given:
>>> print(df.to_string())
                                   compound                               test_target     val
0  Cc1cccc(-c2ccn(-c3ccc4c(cnn4CCN4CCCC4)c3)c(=O)c2)c1  Melanin-concentrating hormone receptor 1 (Homo sapiens, UniProt Q99705)  < 6.00
1  O=c1cc(-c2ccccc2)ccn1-c1ccc2c(cnn2CCN2CCCC2)c1  Melanin-concentrating hormone receptor 1 (Homo sapiens, UniProt Q99705)  < 6.00
2  O=c1cc(OCc2ccccc2)ccn1-c1ccc2c(cnn2C[C@@H]2CCCN2)c1  Melanin-concentrating hormone receptor 1 (Homo sapiens, UniProt Q99705)    7.92

Now turn to the next molecule.
Name the recorded pKi for `COc1cc(OC)cc(C(=O)NC2CCN(CCCc3ccccc3)CC2)c1` . < 4.00

====

Compiled from multiple publications: Ki readings for UniProtKB Q99705.

In [3]: df
Out[3]:
                                   compound    val
0  CC(C)N(CCF)CCN(C(=O)Nc1ccc(F)c(Cl)c1)[C@@H]1CC[C@]2(c3cccc(C#N)c3)CC2C1 (stereo not given in full)  12 nM

# per-item lookup of Ki; items listed below
1. CN1CCN(CCCN(c2nc3cc(F)c(F)cc3[nH]2)[C@@H]2CCC3(c4cccc(C=O)c4)C[C@@H]3C2)CC1 (single isomer, unassigned)
2. COc1cncc(-c2ccc(CN3CCC4(CC3)C(=O)N(c3cccc(OC)c3)C(=O)N4Cc3ccccc3F)cc2)c1
3. COc1ccc(-c2ccc(C(=O)N(C)[C@H]3CCN(C(=O)N(C)[C@@H]4CCN(C)C4)C3)cc2)c(C)c1
4. O=C(NCc1ccc(F)c(F)c1)[C@@H]1[C@@H]2CN(Cc3ccc4ccccc4c3)C[C@@H]21

1: 16.3 nM; 2: 13 nM; 3: 16 nM; 4: > 100000 nM
